Where do the numbers come from? From ChEMBL document CHEMBL1201862.

# Tested on: UACC-62
# procedureText: NCI tumour cell line growth inhibition, 48 h
The source made the active and inactive calls. Cut-off read from the data, not from the text of the source: active = GI50 up to about 1.1 µM and inactive = higher.
quantityMeasured: GI50

> print(dat)
                                   compound  quantitymeasured              reading
1  C=CC(C)(C)n1cc(C2=C(O)C(=O)C(c3cn(C(C)(C)C=C)c4ccccc34)=C(O)C2=O)c2ccccc21              GI50   1.98 µM (inactive)
2  O=c1cnn(C2OC(C(O)CO)C(O)C2O)c(=O)[nH]1 (centres undefined)              GI50  > 100 µM (inactive)
3  Cc1ccc(CC(=O)Nc2ccc(NC(=O)CNC(=O)/C=C/c3ccc(-c4ccccc4)cc3)cc2C(=O)c2ccccc2)cc1              GI50   13.1 µM (inactive)
4  O=C1OC2C(O)COC2(O)C1(O)C(C[N+](=O)[O-])c1ccc(Cl)cc1 (centres undefined)              GI50     10 µM (inactive)

* * *

# Tested on: CAKI-1
# procedureText: NCI tumour cell line growth inhibition, 48 h
Activity calls are given as the source filed them. No stated cut-off is given here; in the data, active = GI50 up to about 1.1 µM and inactive = higher.

molecule	GI50
C=CCNC(=S)N/C=C(\C(=O)OCC)C(=O)C(=O)OCC	> 100 µM (inactive)
CNC(=O)CC1NC(=O)c2csc(n2)-c2ccc(-c3nc(C4=NC(C(=O)N5CCCC5C(N)=O)CO4)cs3)nc2-c2csc(n2)-c2csc(n2)C(C(C)C)NC(=O)CNC(=O)c2csc(n2)C(C(C)C)NC(=O)c2nc1sc2C (stereo not given)	0.436 µM (active)
CCOP(=O)(OCC)/C(C#N)=C\c1ccc(OC(C)=O)cc1	> 100 µM (inactive)
NC(CCSC(F)F)C(=O)O (stereo not given)	> 100 µM (inactive)
O=C(O)c1ccc(C2SCc3nc4ccccc4n32)cc1 (stereo not given)	> 100 µM (inactive)

* * *

# System: SK-MEL-2
# procedureText: NCI tumour cell line growth inhibition, 48 h
Active and inactive are the calls of the source. Cut-off read from the data, not from the text of the source: active = GI50 up to about 1.1 µM and inactive = higher. Square brackets hold non-standard residues; d marks the D form. Peptide text beside a SMILES is read from it. * marks the point of attachment. NMeV = CN[C@H](C(=O)O)C(C)C; X28 = COc1ccc(CN*)c(OC)c1; Octanoyl = CCCCCCCC(=O)*; dNMeA = CN[C@H](C)C(=O)O
Outcomes: active, inactive

molecule	assaySystem	group
Cc1ccc2c(O)cc(-c3cccc(Cl)c3)nc2n1	SK-MEL-2	active
Cc1ccc2c(c1)[nH]c(=S)n2C=C1C(=O)CC(C)(C)CC1=O	SK-MEL-2	inactive
C=C(CN(C)C)C(=O)c1ccc(C)cc1C	SK-MEL-2	inactive
[O-][S+]1c2ccccc2N=C(c2ccc3ccccc3c2)CC1c1ccccc1 (centres undefined)	SK-MEL-2	inactive
COC(=O)c1c(-c2ccccc2)sc(-c2cccc3ccccc23)c1C(=O)OC	SK-MEL-2	inactive
O=C1OC(C2Cc3ccc4c(c3C2=O)CCCC4)c2ccccc21 (centres undefined)	SK-MEL-2	inactive
Cc1ccc(C)c(NC(=O)/C(=N\N)C(c2cnc3ccc([N+](=O)[O-])cc3n2)[N+](=O)[O-])c1 (centres undefined)	SK-MEL-2	inactive
COC(=O)C1=C(C)NC2=C(C(=O)c3ccccc32)C1c1c[nH]nc1-c1ccccc1 (centres undefined)	SK-MEL-2	inactive
O=C(c1ccsc1)c1nccc2c1cnc1ccccc12	SK-MEL-2	inactive
CC(C)C(C/C=C1/CC(CO)(COC(=O)C2CCCCC2)OC1=O)C(C)C (centres undefined)	SK-MEL-2	inactive
O=C(O)c1ccc(C2SCc3nc4ccccc4n32)cc1 (centres undefined)	SK-MEL-2	inactive
CC(=O)NC1C(OCc2ccccc2)OC(CO)C(O)C1OCC(=O)NC(C)C(=O)NC(CCC(=O)Nc1ccc2c(c1)CN1C(=O)c3ccccc3C1=N2)C(N)=O (centres undefined)	SK-MEL-2	inactive
CCCOC(=O)C1CCC(=O)N1C(=O)C(C)Cl (centres undefined)	SK-MEL-2	inactive
CCOC(=O)NC(=O)c1cn(CCN2CCNCC2)c(=O)[nH]c1=O	SK-MEL-2	inactive
Cc1c2ccncc2c(C)c2c1[nH]c1ccc(Oc3ccccc3)cc12	SK-MEL-2	inactive
CC(=O)c1cccc(Nc2nc3ccccc3c3[nH]c4ccccc4c23)c1	SK-MEL-2	inactive
O=C1c2cccc3cc([N+](=O)[O-])cc(c23)C(=O)N1CCCN1CCN(CCCN2C(=O)c3cccc4cc([N+](=O)[O-])cc(c34)C2=O)CC1	SK-MEL-2	active
C[C@]12CC[C@H](O)CC1=CC[C@@H]1C2CC[C@]2(C)C(=O)N(N)C(=O)CC12 (some centres undefined)	SK-MEL-2	inactive
CCCCCCCC(=O)N[C@H](C(=O)N[C@H](C(=O)N(C)[C@H](C(=O)N1CCC[C@H]1C(=O)N(C)[C@H](C)C(=O)NCc1ccc(OC)cc1OC)C(C)C)C(C)C)C(C)C (Octanoyl-VV[NMeV]P[dNMeA]-X28)	SK-MEL-2	inactive
